The values you see were collected from ChEMBL document CHEMBL3576760.

// reported Retention_time for each item listed
# assay_remarks: Retention time of the compound by HPLC analysis
# Assay type: physicochemical
Non-standard residues stand in square brackets, D forms with d. Residues, ends and D or L forms follow the SMILES beside them. ξ: configuration not given here. Phe(4-NH2) = Nc1ccc(C[C@H](N)C(=O)O)cc1; dNle = CCCC[C@@H](N)C(=O)O; ξNle = CCCCC(N)C(=O)O
parameter: Retention_time (min)

CC[C@H](C)[C@H](NC(=O)[C@H](CCCNC(=N)N)NC(=O)[C@@H]1CCCN1C(=O)[C@H](CCCCN)NC(=O)[C@H](CC(C)C)NC(=O)[C@@H](N)CCCCN)C(=O)O (H-KLKPRI-OH)
9.9
CC[C@H](C)[C@H](NC(=O)[C@H](CCCNC(=N)N)NC(=O)[C@@H]1CCCN1C(=O)[C@@H](N)CCCCN)C(=O)N[C@@H](CCCNC(=N)N)C(=O)N[C@@H](CC(C)C)C(=O)O (H-KPRIRL-OH)
9.9
CCCC[C@@H](NC(=O)[C@H](N)Cc1ccccc1)C(=O)N[C@H](CCCNC(=N)N)C(=O)N[C@H](CCCC)C(=O)N[C@H](CCCNC(=N)N)C(=O)N1CCC[C@@H]1C(=O)N[C@H](CCCCN)C(=O)O (H-[dF][dNle][dR][dNle][dR][dP][dK]-OH)
11.1
CC(C)C[C@H](NC(=O)[C@H](CCCCN)NC(=O)[C@@H]1CCCN1C(=O)[C@@H](N)CCCNC(=N)N)C(=O)N[C@@H](CCCCN)C(=O)O
6
CC(C)C[C@H](NC(=O)[C@H](CCCCN)NC(=O)[C@@H](N)Cc1ccccc1)C(=O)N[C@@H](CCCCN)C(=O)O (H-FKLK-OH)
10.8
CCCCC(N)C(=O)N[C@@H](CCCCN)C(=O)NC(CCCC)C(=O)N[C@@H](CCCCN)C(=O)O (some centres undefined) (H-[ξNle]K[ξNle]K-OH)
9.9
CC(C)C[C@H](NC(=O)[C@H](Cc1ccccc1)NC(=O)CN)C(=O)N[C@@H](CCCNC(=N)N)C(=O)O (H-GFLR-OH)
8.7
CC[C@H](C)[C@H](NC(=O)[C@H](CCCNC(=N)N)NC(=O)[C@@H]1CCCN1C(=O)[C@@H](N)CCCCN)C(=O)N[C@@H](CCCNC(=N)N)C(=O)N[C@@H](CC(C)C)C(=O)N[C@@H](Cc1ccccc1)C(=O)O (H-KPRIRLF-OH)
14.5
CC[C@H](C)[C@H](NC(=O)[C@H](CCCNC(=N)N)NC(=O)[C@@H]1CCCN1C(=O)[C@H](CCCCN)NC(=O)[C@H](CC(C)C)NC(=O)[C@@H](N)CCCCN)C(=O)N[C@@H](CCCNC(=N)N)C(=O)N[C@@H](CCCNC(=N)N)C(=O)N[C@@H](CC(C)C)C(=O)N[C@@H](Cc1ccccc1)C(=O)NCC(=O)NCC(=O)O (H-KLKPRIRRLFGG-OH)
11.6
CC(C)C[C@H](NC(=O)[C@H](CCCNC(=N)N)NC(=O)[C@H](CC(C)C)NC(=O)[C@@H](N)Cc1ccccc1)C(=O)N[C@@H](CCCNC(=N)N)C(=O)N1CCC[C@H]1C(=O)N[C@@H](CCCNC(=N)N)C(=O)O (H-FLRLRPR-OH)
10.8
CC[C@H](C)[C@H](NC(=O)[C@H](CCCNC(=N)N)NC(=O)[C@@H](NC(=O)[C@@H](N)Cc1ccccc1)[C@@H](C)CC)C(=O)N[C@@H](CCCNC(=N)N)C(=O)N1CCC[C@H]1C(=O)N[C@@H](CCCNC(=N)N)C(=O)O (H-FIRIRPR-OH)
9.9
CC(C)C[C@H](NC(=O)[C@H](CCCCN)NC(=O)[C@@H](N)Cc1ccc(N)cc1)C(=O)N[C@@H](CCCCN)C(=O)O (H-[Phe(4-NH2)]KLK-OH)
7.2
CCCCC(N)C(=O)N[C@@H](CCCNC(=N)N)C(=O)N1CCC[C@H]1C(=O)N[C@@H](CCCNC(=N)N)C(=O)NC(CCCC)C(=O)N[C@@H](CCCCN)C(=O)O (some centres undefined) (H-[ξNle]RPR[ξNle]K-OH)
8.2
CC[C@H](C)[C@H](NC(=O)[C@H](CCCNC(=N)N)NC(=O)[C@@H]1CCCN1C(=O)[C@H](CCCCN)NC(=O)[C@H](CC(C)C)NC(=O)[C@@H](N)CC(C)C)C(=O)N[C@@H](CCCNC(=N)N)C(=O)N[C@@H](CCCNC(=N)N)C(=O)N[C@@H](CC(C)C)C(=O)N[C@@H](Cc1ccccc1)C(=O)NCC(=O)NCC(=O)O (H-LLKPRIRRLFGG-OH)
12.6
CC[C@H](C)[C@H](NC(=O)[C@H](CCCNC(=N)N)NC(=O)[C@H](CCCNC(=N)N)NC(=O)[C@H](CC(C)C)NC(=O)[C@@H](N)Cc1ccccc1)C(=O)N[C@@H](CCCNC(=N)N)C(=O)N1CCC[C@H]1C(=O)N[C@@H](CCCCN)C(=O)N[C@@H](CC(C)C)C(=O)O (H-FLRRIRPKL-OH)
11.4
CC[C@H](C)[C@H](N)C(=O)N[C@@H](CCCNC(=N)N)C(=O)N1CCC[C@H]1C(=O)N[C@@H](CCCCN)C(=O)N[C@@H](CC(C)C)C(=O)N[C@@H](CCCCN)C(=O)O (H-IRPKLK-OH)
6.8
CCCCC(NC(=O)[C@H](CCCCN)NC(=O)[C@@H]1CCCN1)C(=O)N[C@@H](CCCCN)C(=O)O (some centres undefined) (H-PK[ξNle]K-OH)
7.5
CC[C@H](C)[C@H](NC(=O)[C@H](CCCNC(=N)N)NC(=O)[C@H](CCCNC(=N)N)NC(=O)[C@H](CC(C)C)NC(=O)[C@@H](N)Cc1ccccc1)C(=O)O (H-FLRRI-OH)
9.2
CC[C@H](C)[C@H](NC(=O)[C@H](CCCNC(=N)N)NC(=O)[C@@H](N)Cc1ccccc1)C(=O)N[C@@H](CCCNC(=N)N)C(=O)N1CCC[C@H]1C(=O)N[C@@H](CCCCN)C(=O)N[C@@H](CC(C)C)C(=O)N[C@@H](CCCCN)C(=O)O (H-FRIRPKLK-OH)
10.2
